Assay target: T1, Pex13, P80667
T1 sequence (P80667 295-386, looked up): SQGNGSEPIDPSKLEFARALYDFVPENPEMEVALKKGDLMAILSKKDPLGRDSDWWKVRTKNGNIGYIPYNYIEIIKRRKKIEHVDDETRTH
Assay: SPOT array
Condition summary: median of control spots 1341
Property measured: SPOT intensity
Answer using only a numeral; do not append any unit.

Record excerpt, results attached:
binder=RKQRSIPLSPIVPES observed_result=2
binder=GPPPPLPPPLFPSSS observed_result=725
binder=EVTPKVPERPSRRKT observed_result=171
binder=QLMKNLPKIPLLNDI observed_result=162
binder=PLRRTVMSLPGNHDI observed_result=31
binder=LPPPPPPPPPPPLPQ observed_result=3

Kindly consider the entry below.
Lab note: RVTRKRPREPKSTND gave SPOT intensity of 0
